Data origin, for the record: patent US5591741A

Test system: Erysiphe graminis f.sp. hordei
Experiment: Activity against barley powdery mildew, direct therapeutic (EGT)
Assay type: in vivo
Settings: direct therapeutic foliar spray, 600 ppm, up to 7 days
Measurement Label: disease control rating EGT

Could you tell me which disease control rating EGT is on file for CCCCCCNCC1COC2(CCC(C(C)(C)C)CC2)C1 (centres unmarked) ?
2 (greater than 80% disease control)

Can you check CCCCCN(CCC)C1COC2(CCC(C(C)(C)C)CC2)C1 (centres unmarked) next?
2 (greater than 80% disease control)

Can you check CC(C)(C)C1CCC2(CC1)CC(NC1CCCCC1)CO2 (centres unmarked) next?
2 (greater than 80% disease control)

Can you check CN(C)CCC1COC2(CCC(C(C)(C)C)CC2)C1 (centres unmarked) next?
0 (less than 50% disease control)

Can you check C=CCN(C1CCCCC1)C1COC2(CCC(C(C)(C)C)CC2)C1 (centres unmarked) next?
2 (greater than 80% disease control)

Can you check CCC(CC)N(CC)C1COC2(CCC(C(C)(C)C)CC2)C1 (centres unmarked) next?
2 (greater than 80% disease control)

Can you check CC(C)(C)C1CCC2(CC1)CC(NC1CCC3CCCCC3C1)CO2 (centres unmarked) [Compound 138] next?
0 (less than 50% disease control)

Can you check CC(C)N(CCC1CCCCC1)C1COC2(CCC(C(C)(C)C)CC2)C1 (centres unmarked) next?
2 (greater than 80% disease control)

Can you check CCCCCN(C)C1COC2(CCC(C(C)(C)C)CC2)C1 (centres unmarked) next?
2 (greater than 80% disease control)

Can you check CC1CC(C)CN(C2COC3(CCC(c4ccccc4)CC3)C2)C1 (centres unmarked) next?
2 (greater than 80% disease control)

Can you check CC1CCCN(C2COC3(CCC(C(C)(C)C)CC3)C2)C1 (centres unmarked) next?
2 (greater than 80% disease control)

Can you check CCCCCCCCCCNC1COC2(CCC(C(C)(C)C)CC2)C1 (centres unmarked) next?
2 (greater than 80% disease control)

Can you check CC(C)(C)c1ccc(NC2COC3(CCC(C(C)(C)C)CC3)C2)cc1 (centres unmarked) next?
0 (less than 50% disease control)

Can you check CCCCc1ccc(CNC2COC3(CCC(C(C)(C)C)CC3)C2)cc1 (centres unmarked) next?
2 (greater than 80% disease control)

Can you check CCCCNC1COC2(CCC(C(C)(C)C)CC2)C1 (centres unmarked) next?
2 (greater than 80% disease control)

Can you check CCN(CC)C1COC2(CCC(C(C)(C)C)CC2)C1 (centres unmarked) next?
2 (greater than 80% disease control)

Can you check CC(C)(C)C1CCC2(CC1)CC(N1CCCC3CCCCC31)CO2 (centres unmarked) next?
2 (greater than 80% disease control)

Can you check CCCCCN(CC(C)C)C1COC2(CCC(C(C)(C)C)CC2)C1 (centres unmarked) next?
2 (greater than 80% disease control)

Can you check CC(C)(C)C1CCC2(CC1)CC(NCc1ccc(Br)cc1)CO2 (centres unmarked) next?
2 (greater than 80% disease control)

Can you check CCCCCNC1COC2(CCC(C(C)(C)C)CC2)C1 (centres unmarked) next?
2 (greater than 80% disease control)

* * *

System: Botrytis cinerea
Test: Direct protectant activity against broad bean grey mould (BCB)
Assay type: in vivo
Settings: direct protectant foliar spray, 600 ppm, 4 days
Measurement Label: disease control rating BCB

State its disease control rating BCB on Botrytis cinerea: CC(C)NC1COC2(CCC(C(C)(C)C)CC2)C1 (centres unmarked) [Compound 63]
0 (less than 50% disease control)

Can you check CCCCN(Cc1cccnc1)C1COC2(CCC(C(C)(C)C)CC2)C1 (centres unmarked) [Compound 48] next?
0 (less than 50% disease control)

Can you check CC(C)(C)C1CCC2(CC1)CC(NCc1ccc(Cl)cc1)CO2 (centres unmarked) [Compound 1] next?
0 (less than 50% disease control)

Can you check CCCCCNC1COC2(CCC(c3ccccc3)CC2)C1 (centres unmarked) [Compound 54] next?
0 (less than 50% disease control)

Can you check CCCCN(CCCC)C1COC2(CCC(c3ccccc3)CC2)C1 (centres unmarked) [Compound 55] next?
2 (greater than 80% disease control)

* * *

Test system: Pyricularia oryzae
Format: in vivo
Conditions: rice seedlings, direct therapeutic foliar spray, 600 ppm, 4-5 days
Measurement Label: disease control rating PO

Could you tell me which disease control rating PO is on file for CCN(C1COC2(CCC(C(C)(C)C)CC2)C1)C1CC2CCC1C2 (centres unmarked) ?
0 (less than 50% disease control)

Can you check CC(=CC(=O)CC(C)C)NC1COC2(CCC(C(C)(C)C)CC2)C1 (centres unmarked) next?
0 (less than 50% disease control)

Can you check CC(C)(C)C1CCC2(CC1)CC(NC1CCCCC1)CO2 (centres unmarked) next?
0 (less than 50% disease control)

Can you check CN(C1COC2(CCC(C(C)(C)C)CC2)C1)C1CC2CCC1C2 (centres unmarked) next?
0 (less than 50% disease control)

Can you check CC(C)(C)C1CCC2(CC1)CC(NC1CCC3CCCCC3C1)CO2 (centres unmarked) [Compound 138] next?
0 (less than 50% disease control)

Can you check CC(C)CNC1COC2(CCC(C(C)(C)CC(C)(C)C)CC2)C1 (centres unmarked) next?
0 (less than 50% disease control)

Can you check CCCCCCNC1COC2(CCC(C(C)(C)C)CC2)C1 (centres unmarked) [Compound 38] next?
0 (less than 50% disease control)

Can you check CC1CCCN(C2COC3(CCC(C(C)(C)C)CC3)C2)C1 (centres unmarked) next?
0 (less than 50% disease control)

Can you check CCCN(CC(C)C)C1COC2(CCC(C(C)(C)C)CC2)C1 (centres unmarked) next?
1 (about 50-80% disease control)

Can you check CC1CCN(C2COC3(CCC(C(C)(C)CC(C)(C)C)CC3)C2)CC1 (centres unmarked) next?
0 (less than 50% disease control)

Can you check CCCN(C(CC)CC)C1COC2(CCC(C(C)(C)C)CC2)C1 (centres unmarked) next?
0 (less than 50% disease control)

Can you check CC(C)(C)C1CCC2(CC1)CC(Nc1ccccc1)CO2 (centres unmarked) next?
0 (less than 50% disease control)

Can you check CCCCNC1COC2(CCC(C(C)(C)C)CC2)C1 (centres unmarked) next?
0 (less than 50% disease control)

Can you check C=CCN(C1CCCCC1)C1COC2(CCC(C(C)(C)C)CC2)C1 (centres unmarked) next?
0 (less than 50% disease control)

Can you check C1CCC2CN(C3COC4(C3)C3CC5CC(C3)CC4C5)CCC2C1 (centres unmarked) next?
0 (less than 50% disease control)

Can you check CCCCCCCCNC1COC2(CCC(C(C)(C)C)CC2)C1 (centres unmarked) next?
0 (less than 50% disease control)

Can you check CC(C)(C)C1CCC2(CC1)CC(NC1C3CC4CC(C3)CC1C4)CO2 (centres unmarked) next?
0 (less than 50% disease control)

Can you check CC(C)(C)CCNC1COC2(CCC(C(C)(C)C)CC2)C1 (centres unmarked) next?
0 (less than 50% disease control)

Can you check CC(C)(C)C1CCC2(CC1)CC(NC1CC3CCC1C3)CO2 (centres unmarked) next?
0 (less than 50% disease control)

Can you check CCCCCCNC1CC2(CCC(C(C)(C)C)CC2)OC1C (centres unmarked) next?
0 (less than 50% disease control)

* * *

Tested on: Alternaria solani
Assay: In vivo fungicidal activity, Tomato Early Blight (TEB); note: ranges in brackets are in %
Settings: Table VIa; host plants sprayed; solution of 400 ppm and dilutions
Measurement Label: disease control rating TEB

State its disease control rating TEB on Alternaria solani: CCCCCC(C)N(C)CCC1COC2(CCC(C(C)(C)C)CC2)C1 (stereo not drawn)
0 (0)

Can you check CN(CC1COC2(CCC(C(C)(C)C)CC2)C1)C1CCCCC1 (stereo not drawn) next?
6 (75-89)

Can you check CC(C)(C)C1CCC2(CC1)CC(CCNC1CCC3CCCCC3C1)CO2 (stereo not drawn) next?
6 (75-89)

Can you check CCCCN(CCCC)CCC1COC2(CCC(C(C)(C)C)CC2)C1 (stereo not drawn) next?
0 (0)

Can you check CCN(CC1COC2(CCC(C(C)(C)C)CC2)C1)C1CCCCC1 (stereo not drawn) next?
0 (0)

Can you check CC(C)(C)C1CCC2(CC1)CC(CCN1CCCCC1)CO2 (stereo not drawn) next?
6 (75-89)

Can you check CCCCCC(C)NCCC1COC2(CCC(C(C)(C)C)CC2)C1 (stereo not drawn) next?
3 (30-44)

Can you check CCCCC(CC)NCCC1COC2(CCC(C(C)(C)C)CC2)C1 (stereo not drawn) next?
0 (0)

Can you check CC1CCCC(NCCC2COC3(CCC(C(C)(C)C)CC3)C2)C1 (stereo not drawn) next?
4 (45-59)

* * *

Test system: Cercospora beticola
Assay: In vivo fungicidal activity, Sugar Beet Cercospora (SBC); note: ranges in brackets are in %
Conditions: Table VIa; host plants sprayed; solution of 400 ppm and dilutions
Measurement Label: disease control rating SBC

Could you tell me which disease control rating SBC is on file for CCCCCC(C)N(C)CCC1COC2(CCC(C(C)(C)C)CC2)C1 (centres unmarked) [Compound 201] ?
6 (75-89)

Can you check CCCCC(CC)NCCC1COC2(CCC(C(C)(C)C)CC2)C1 (centres unmarked) [Compound 197] next?
7 (90-95)

Can you check CC1CCCC(NCCC2COC3(CCC(C(C)(C)C)CC3)C2)C1 (centres unmarked) [Compound 192] next?
7 (90-95)

Can you check CN(CCC1COC2(CCC(C(C)(C)C)CC2)C1)C1CCCCC1 (centres unmarked) [Compound 199] next?
3 (30-44)

Can you check CCCCCC(C)NCCC1COC2(CCC(C(C)(C)C)CC2)C1 (centres unmarked) [Compound 194] next?
8 (96-99)
